Tested on: K4 kissing-loop RNA reporter;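 note: bound reporter read as fluorescence of individual clusters on recovered sequencing chips by microscopy, with normalized cluster intensities fitted with a binding model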
Assay Method Text: apparent KD of K4 kissing-loop reporter; higher = weaker reporter binding
Condition Info: Eterna round: R107; input ligand: none
Value Type: apparent KD of K4 kissing-loop reporter (µM)
Report as a plain number; the unit µM is understood.

| Sequence Text | Value Type | Endpoint Value |
| --- | --- | --- |
| AAUUCAAACUGAAGGAGCGAGCAUUUUGGAGUGAUGUUCCAAGCGAGUGAUGUUCGCAUAGCUCAGGUAGGUCGCAGUUUGGAUA [Same State Arginie B GF 14] | apparent KD of K4 kissing-loop reporter | 0.144 |
| UUUAUAUUGUCGGCCGCCACUGGAUCAAUAUUUGUAUGAUCUAGUUCAAAGUGAUGUUUUGAGUCCAGGACCGGGACAUUUGUUA [JR_ExcTryptoB_Sub005] | apparent KD of K4 kissing-loop reporter | 0.669 |
| AAUUUAUUAUCUGAUACCAGACUUUAUCUUGUUUAUAAGUCAAGUGAUGUUUGACUAUUAGUCCCUUGGCAGCAGUAUUUUUUAA [JR_Nu_SSTheophyB_Sub025] | apparent KD of K4 kissing-loop reporter | 0.269 |
| GGAUAGGAUAGAGGAUAUGGAAAACACAAAAGUGACUUGUUGUGUUUAUCCAUAGGGAGUGAUGUUCCAGAAGGCUGUCCUAUCG [MatMod 23 - Jieux - Exclusion - FMN B] | apparent KD of K4 kissing-loop reporter | 0.169 |
| ACGUAGUUCUAGGAUACCAGCCAAGGUGCCAGGACAAAAGUCCUGGCAGCCAGUGAUGUUGGCCCUUGGCAGCCUAGAACUACGA [Omei KL Theo B Exc B v7] | apparent KD of K4 kissing-loop reporter | 0.154 |

Now for the sequence whose apparent KD of K4 kissing-loop reporter we want.
**Q:** Specify measured apparent KD of K4 kissing-loop reporter for GUGCGGUGGAGGCUACCGCUACUCUGAGAAGGAGCGCAGAUGACUGCAGGUAGGUCGCUUAGAGCUUGCAGUGAUGUUGCAAGUU [Teorzaqu] .
**A:** 0.188
